Provide the recorded growth inhibition for the entries that follow.
assay_text: NCI Yeast Anticancer Drug Screen. Data for the mlh1 rad18 strain (AID 175)
measurement_parameters: S. cerevisiae mlh1 rad18 strain growth inhibition; at 5.0 µM (retest, dose inferred, filed as 0.5); stronger effect = higher value
This is part of a sample that, as a whole, favours compounds with a hit. Of some 79,000 tested, about 15% had one in any assay.
State just the number; it will be interpreted in %.

IN: Look up growth inhibition for this molecule: CN(NC(=O)/C(=C/c1ccc2c(c1)OCO2)NC(=O)c1ccccc1)c1ccnc2cc(Cl)ccc12
OUT: 10

IN: // lookup growth inhibition for COc1ccc(-c2c(C#N)c(S)n(NS(=O)(=O)c3ccc(C)cc3)c(=O)c2C#N)cc1
OUT: 27

IN: So what's the measured growth inhibition for this one? CN(C)CCCSc1c2ccccc2nc2cc(NCC(=O)Nc3ccccc3-c3ccccc3NC(=O)CNc3ccc4c(SCCCN(C)C)c5ccccc5nc4c3)ccc12
OUT: 41

IN: Consider the molecule shown here: O=C(CCCSCCCC(=O)NNc1ccccc1)NNc1ccccc1 What is its recorded growth inhibition?
OUT: 54

IN: Look up growth inhibition: COc1ccc(C(=O)C(C(c2ccccc2)N2CCc3ccccc3C2)N2CCc3ccccc3C2)cc1 (stereo not given)
OUT: -1

IN: Give the measured growth inhibition of O=C(CCCN1CCC(C(O)c2ccc(F)cc2)CC1)c1ccc(F)cc1 (stereo not given) .
OUT: 62

IN: Item O=C(NNc1ccccc1)c1ccccc1Cl has what recorded growth inhibition?
OUT: 13

IN: Consider the molecule shown here: Cc1ccc2c(c1)nc1n2C(N)=Nc2ccccc2S1 What is its recorded growth inhibition?
OUT: 0

IN: Entry O=C(N/C(=C\c1ccc(Oc2ccc(Cl)c(Cl)c2)cc1)c1nc2ccccc2[nH]1)c1ccccc1 has what growth inhibition?
OUT: 6

IN: GET /values?readout=growth inhibition&item= CSc1nc(NC2OC(CO)C(O)C(O)C2O)c(Cl)c(=O)[nH]1 (stereo not given)
OUT: 2
